Provide the recorded minimal effective concentration for the entries that follow.
Tested on: Mycobacterium tuberculosis Erdman
experiment: Biofilm inhibition of Mycobacterium tuberculosis (ocular inspection)
Type: cell-based
measurement context: concentration at which full biofilm inhibition took place, replicate determinations in one cell

[in] // minimal effective concentration lookup, key: Cn1cc(-c2c(COc3cccc4ccccc34)cc(=O)n3c2SCC3C(=O)O)c2ccccc21 (stereo not shown)
[out] 50 µM

[in] Please do the same for "CO[C@H]1Sc2c(C3CC3)c(Cc3cccc4ccccc34)cc(=O)n2[C@@H]1C(=O)O" as well.
[out] 50 µM

[in] # iterate: "Cc1cccc(CCc2cc(=O)n3c(c2C(C)C)SC[C@H]3C(=O)O)c1"
[out] 50 µM

[in] Do the same for "CS(=O)(=O)NC(=O)[C@@H]1CSc2c(C3CC3)c(Cc3cccc4ccccc34)cc(=O)n21" please
[out] 50 µM

[in] Try the compound "Cc1ccc(F)c(Cc2cc(=O)n3c(c2C2CC2)SC[C@H]3C(=O)O)c1"
[out] 25 µM

[in] Now the compound "O=C(O)[C@@H]1CSc2c(C3CC3)c(Cc3cccc4ccccc34)c(CO)c(=O)n21"
[out] 50 µM

[in] Can you check "O=C(O)[C@@H]1CSc2c(C3CC3)c(Cc3ccc(F)c4ccccc34)cc(=O)n21" next?
[out] 50 µM

[in] What about "O=C(O)[C@@H]1CSc2c(-c3cccs3)c(Cc3cccc4ccccc34)cc(=O)n21" ?
[out] 50 µM

[in] What do we get for "O=C(O)[C@@H]1CSc2c(C3CC3)c(Cc3cc4ccccc4s3)cc(=O)n21" ?
[out] 25 µM

[in] Can you handle "O=C(O)[C@@H]1CSc2c(C3CC3)c(COc3cccc4ccccc34)cc(=O)n21" next?
[out] 25 µM

[in] Subsequent entry: "O=C(O)[C@@H]1CSc2c(C3CC3)c(Cc3ccc4ccccc4c3)cc(=O)n21"
[out] 50 µM

[in] Also need "Cc1ccc(Cc2cc(=O)n3c(c2C2CC2)SC[C@H]3C(=O)O)c2ccccc12" , thanks.
[out] 25 µM

[in] Note, next up: "O=C(O)[C@@H]1[C@@H](c2ccccc2)Sc2c(C3CC3)c(Cc3cccc4ccccc34)cc(=O)n21"
[out] 30 µM

[in] Same thing, different compound: "Cc1cccc(Cc2cc(=O)n3c(c2C2CC2)SC[C@H]3C(=O)O)c1C"
[out] 25 µM

[in] Same thing, different compound: "O=C(O)c1c(-c2ccsc2)sc2c(C3CC3)c(Cc3cccc4ccccc34)cc(=O)n12"
[out] 30 µM

[in] What do we get for "O=C(O)[C@H]1CSc2c(C3CC3)c(Cc3cccc4ccccc34)cc(=O)n21" ?
[out] 5 µM
